Where do the numbers come from? From paper PMC8176898.

experiment: In vitro human plasma stability; type: in vitro ADME; details: human
Ends that are not written are not given here.
Quantity measured: half-life (min)
Number in min, nothing else.

QUERY: Look up half-life of NGYENPTYKFFE [APPWT peptide] and report it.
RESULT: 26
